Molecular target: HLA-A*24:02
Assay: IEDB peptide-MHC binding, purified MHC/competitive/fluorescence; bounds were set here for any values at or beyond the usual limits of such assays
Settings: source organism: Gorilla gorilla gorilla
METRIC_NAME: pIC50
The meaning of pIC50 here: minus log10 of the concentration in molar units.

The measured pIC50 associated with `RYSHWTKL` reads 6.79

* * *

Molecular target: HLA-A*31:01
Assay: IEDB peptide-MHC binding, purified MHC/competitive/fluorescence; filed as Kd, often an IC50 or EC50 that approximates it; bounds were set here for any values at or beyond the usual limits of such assays
Details: source organism: Yersinia pestis FV-1
METRIC_NAME: Kd

The reported value for `SVQWFRLPR` in terms of Kd is ≤ 0.1 nM

* * *

Target: HLA-B*45:06
Assay: IEDB peptide-MHC binding, purified MHC/competitive/fluorescence; filed as Kd, often an IC50 or EC50 that approximates it; bounds were set here for any values at or beyond the usual limits of such assays
Details: source organism: Mycobacterium tuberculosis variant bovis BCG str. Pasteur 1173P2
METRIC_NAME: Kd

Documented Kd of `RPRCAYLPF` : ≥ 5 µM

* * *

Biological target: HLA-A*01:01
Experiment: IEDB peptide-MHC binding, purified MHC/direct/fluorescence; filed as Kd, often an IC50 or EC50 that approximates it; bounds were set here for any values at or beyond the usual limits of such assays
Details: source organism: Cryptosporidium parvum
METRIC_NAME: Kd

# Kd of `WLPWIPQLI` = ≥ 20 µM

* * *

Molecular target: HLA-B*48:01
Experiment: IEDB peptide-MHC binding, purified MHC/direct/fluorescence; filed as Kd, often an IC50 or EC50 that approximates it; bounds were set here for any values at or beyond the usual limits of such assays
Details: source organism: Campylobacter jejuni
METRIC_NAME: Kd

Summary for this sequence, `VSIRGSHHK` : Kd is ≥ 20 µM

* * *

Target: HLA-A*02:01
Assay: IEDB peptide-MHC binding, purified MHC/competitive/fluorescence; bounds were set here for any values at or beyond the usual limits of such assays
Conditions: source organism: Vaccinia virus WR
METRIC_NAME: IC50

Field IC50 (entry `KMDNGTLEF` ) reads 6.36 µM

Record `LPWTKISET` , field IC50: ≥ 405 µM

Lab note: measured IC50 of `GLVSKFMSN` was 13.8 µM

Query `SLFTEQAFY` yields IC50 of 15 µM

Data point: `INVEYRFLV` ; IC50 = 1.65 µM

* * *

Target: HLA-B*39:01
Assay: IEDB peptide-MHC binding, purified MHC/competitive/fluorescence; filed as Kd, often an IC50 or EC50 that approximates it; bounds were set here for any values at or beyond the usual limits of such assays
Conditions: source organism: Giardia lamblia ATCC 50803
pKd: −log10 of the molar value.
METRIC_NAME: pKd

pKd for HLA-B*39:01 with input `RIYDPLWFQ` equals ≤ 4.70

* * *

Molecular target: HLA-B*51:01
Assay: IEDB peptide-MHC binding, purified MHC/competitive/fluorescence; filed as Kd, often an IC50 or EC50 that approximates it; bounds were set here for any values at or beyond the usual limits of such assays
Conditions: source organism: Four Corners hantavirus
pKd: −log10 of the molar value.
METRIC_NAME: pKd

Short answer for `KARNIISPV` : pKd was ≤ 4.70

* * *

Biological target: HLA-A*02:11
Assay: IEDB peptide-MHC binding, purified MHC/competitive/fluorescence; filed as Kd, often an IC50 or EC50 that approximates it; bounds were set here for any values at or beyond the usual limits of such assays
Conditions: source organism: Cryptosporidium parvum Iowa II
pKd: −log10 of the molar value.
METRIC_NAME: pKd

The recorded pKd for `LTAPCDIYV` is ≤ 4.70

* * *

Biological target: HLA-A*02:01
Experiment: IEDB peptide-MHC binding, purified MHC/competitive/fluorescence; bounds were set here for any values at or beyond the usual limits of such assays
Conditions: source organism: Monodelphis domestica
METRIC_NAME: IC50

For record `YSLEYFQFVKK` the listed IC50 is ≥ 20 µM

* * *

Biological target: HLA-B*18:01
Assay: IEDB peptide-MHC binding, purified MHC/competitive/fluorescence; filed as Kd, often an IC50 or EC50 that approximates it; bounds were set here for any values at or beyond the usual limits of such assays
Settings: source organism: Escherichia coli str. K-12 substr. DH10B
pKd: −log10 of the molar value.
METRIC_NAME: pKd

Kindly note: HLA-B*18:01, `QVIFKCVPK` , pKd value reported: ≤ 4.70

* * *

Target: HLA-B*08:02
Assay: IEDB peptide-MHC binding, purified MHC/direct/fluorescence; filed as Kd, often an IC50 or EC50 that approximates it; bounds were set here for any values at or beyond the usual limits of such assays
Settings: source organism: Influenza B virus (B/Chiba/447/98)
METRIC_NAME: Kd

Field Kd (entry `YSHGTGTGY` ) reads ≥ 20 µM

* * *

Biological target: HLA-A*02:01
Test: IEDB peptide-MHC binding, purified MHC/direct/fluorescence; filed as Kd, often an IC50 or EC50 that approximates it; bounds were set here for any values at or beyond the usual limits of such assays
Settings: source organism: Rickettsia prowazekii
METRIC_NAME: Kd

Lookup result for `RRNRKALWL` ; measured Kd: ≥ 20 µM

* * *

Target: HLA-B*40:01
Assay: IEDB peptide-MHC binding, purified MHC/competitive/radioactivity; filed as Kd, often an IC50 or EC50 that approximates it; bounds were set here for any values at or beyond the usual limits of such assays
Conditions: source organism: Dengue virus 2 Peru/IQT2913/1996
METRIC_NAME: Kd (µM)
Express the result in µM but write the number alone.

Measured Kd of `VEAGRTLRVL` : 0.0121

* * *

Below, each entry is listed with its recorded pKd.
Target: HLA-B*35:01
Experiment: IEDB peptide-MHC binding, purified MHC/competitive/radioactivity; filed as Kd, often an IC50 or EC50 that approximates it; bounds were set here for any values at or beyond the usual limits of such assays
Settings: source organism: SARS coronavirus Tor2
Note on units: pKd is unitless, being -log10 of a concentration expressed in mol/L.

APSASAFFGM    5.67
FPNITNLCPF    8.78

Now let's try a different one.
In plain terms, `RPLMESELVI` has a documented pKd of 6.40

* * *

Target: HLA-B*40:01
Test: IEDB peptide-MHC binding, purified MHC/competitive/fluorescence; filed as Kd, often an IC50 or EC50 that approximates it; bounds were set here for any values at or beyond the usual limits of such assays
Settings: source organism: Escherichia coli O157:H7 str. EDL933
METRIC_NAME: pKd
Keep it numeric: pKd is minus log10 of the concentration in mol/L.

Entry `FERGVINVF` — recorded pKd = 5.49

* * *

Molecular target: HLA-B*57:01
Assay: IEDB peptide-MHC binding, purified MHC/competitive/radioactivity; filed as Kd, often an IC50 or EC50 that approximates it; bounds were set here for any values at or beyond the usual limits of such assays
Conditions: source organism: Homo sapiens
pKd: −log10 of the molar value.
METRIC_NAME: pKd

// `SIRDGVRAY` : pKd value = ≤ 4.34

* * *

Biological target: HLA-A*31:01
Assay: IEDB peptide-MHC binding, purified MHC/competitive/radioactivity; filed as Kd, often an IC50 or EC50 that approximates it; bounds were set here for any values at or beyond the usual limits of such assays
Details: source organism: Dengue virus 3 Singapore/8120/1995
METRIC_NAME: pKd
pKd is defined as minus the log10 of a concentration measured in mol/L.

Observed pKd on HLA-A*31:01, entry `KALKINWYK` , equals 9.96

* * *

Molecular target: HLA-A*02:02
Experiment: IEDB peptide-MHC binding, purified MHC/competitive/radioactivity; filed as Kd, often an IC50 or EC50 that approximates it; bounds were set here for any values at or beyond the usual limits of such assays
Settings: source organism: Mammarenavirus guanaritoense
METRIC_NAME: pKd
Bear in mind: pKd is minus log10 of a mol/L concentration; give just that figure.

Given the sequence `YCLDFLFDV` and test system HLA-A*02:02, the measured pKd is 4.76

* * *

Molecular target: HLA-A*68:02
Experiment: IEDB peptide-MHC binding, purified MHC/competitive/radioactivity; filed as Kd, often an IC50 or EC50 that approximates it; bounds were set here for any values at or beyond the usual limits of such assays
Conditions: source organism: Hepacivirus hominis
METRIC_NAME: Kd

Kd on HLA-A*68:02 for `RPALVFDITK` is ≥ 69.8 µM

* * *

Target: HLA-A*31:01
Assay: IEDB peptide-MHC binding, purified MHC/direct/fluorescence; filed as Kd, often an IC50 or EC50 that approximates it; bounds were set here for any values at or beyond the usual limits of such assays
Conditions: source organism: Yersinia pestis Nepal516
# reported Kd; entries follow

WLWVSSSDM    ≥ 20 µM

Now turn to the next sequence.
Form field Kd, entry `LSEEIGLDL` : ≥ 20 µM
